Kindly state TbrCatL Inhibition 0’ for each of the entries shown.
- test system: TbrCatL (Trypanosoma brucei rhodesiense, UniProt Q95PM0)
- Construct: Conor Caffrey (University of California San Diego)
- Sequence (Q95PM0 entry or part of it): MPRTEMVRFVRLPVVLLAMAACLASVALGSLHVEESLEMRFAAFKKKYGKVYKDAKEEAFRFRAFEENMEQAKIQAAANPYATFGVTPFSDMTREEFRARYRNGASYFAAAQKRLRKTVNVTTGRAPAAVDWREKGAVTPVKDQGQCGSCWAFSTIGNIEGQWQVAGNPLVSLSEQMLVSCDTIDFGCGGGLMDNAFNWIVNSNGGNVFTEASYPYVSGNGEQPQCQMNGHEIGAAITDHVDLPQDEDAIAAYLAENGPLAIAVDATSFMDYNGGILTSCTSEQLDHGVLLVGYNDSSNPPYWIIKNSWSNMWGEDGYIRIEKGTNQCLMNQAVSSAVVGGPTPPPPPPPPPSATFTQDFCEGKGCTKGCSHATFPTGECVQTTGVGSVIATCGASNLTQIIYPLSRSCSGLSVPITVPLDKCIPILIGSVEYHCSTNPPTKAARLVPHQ
- assay overview: TbrCatL enzymatic inhibition assay (cleavage of fluorogenic substrate Z-FR-AMC);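 further: at 5 µM compound concentration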
- Assay type: biochemical
- test conditions: 0’ (no pre-incubation); sheet Screening results
Answers are plain numbers, in %.

# count of solved cases: 5
CC(=O)Nc1ccc(NC(=O)c2cc(-c3cc(Cl)ccc3O)n[nH]2)cc1
-5
CC1(O)CC(c2nc(-c3ccc4ccc(-c5ccccc5)nc4c3)c3c(N)nccn23)C1 (stereo not drawn)
7
Clc1ccc(CCNc2cc(-c3ccccc3)nc3ncnn23)cc1
20
O=C(C(Cc1c[nH]c2ccccc12)NS(=O)(=O)c1ccc(Cl)cc1)N1CCCCC1 (stereo not drawn)
11
COc1cccn2c(C(=O)N3CCCCC3)c(C(F)(F)F)nc12
13

// input: 4 compounds below; output: TbrCatL Inhibition 0’ for each
1. Cc1cc(C2=NOC(c3cc(Cl)c(F)c(Cl)c3)(C(F)(F)F)C2)ccc1C(=O)NCc1ccc2c(c1)C(C)(C)OB2O (stereo not drawn)
2. Cc1ccc2nc(Cl)c(CNCc3cccs3)cc2c1
3. CC(C)(C)c1cc(C(=O)Nc2cccnc2)cc(C(=O)Nc2cccnc2)c1
4. Cc1c[nH]c(CCNC(=O)c2cc(-c3ccc(Cl)cc3)cs2)n1

1. -0.1
2. 5.4
3. -6
4. 28

---

Please go through the items and note down their TbrCatL Inhibition 0’.
- test system: TbrCatL (Trypanosoma brucei rhodesiense, UniProt Q95PM0)
- Construct: Conor Caffrey (University of California San Diego)
- assay overview: TbrCatL enzymatic inhibition assay (cleavage of fluorogenic substrate Z-FR-AMC);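 further: at 5 µM compound concentration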
- Type: biochemical
- test conditions: 0’ (no pre-incubation); sheet Screening results

Nc1ncnc2c1ncn2C[C@@H](O)[C@@H](O)C(=O)O
3.4%
COc1ccc(Nc2ccccc2NC(=O)c2ccc(=O)[nH]c2)cc1
10%
Clc1ccc(CN2CCN(C3=NCCN3)CC2)cc1Cl
-5%
Cc1cccc(NC(=O)c2cc(S(=O)(=O)N(C)c3ccc(F)cc3)ccc2Cl)n1
-3%

Now look at this one.
Please fill in: TbrCatL Inhibition 0’ reported for Oc1c(I)cc(I)c2cccnc12 = 0.5%

---

- test system: TbrCatL (Trypanosoma brucei rhodesiense)
- Construct: Conor Caffrey (University of California San Diego)
- assay overview: TbrCatL enzymatic inhibition assay (cleavage of fluorogenic substrate Z-FR-AMC);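 further: at 5 µM compound concentration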
- Type: biochemical
- test conditions: 10’ (pre-incubation); sheet Screening results
For each of the compounds below, state its TbrCatL Inhibition 10’.
Give bare numbers, in %.

Quick batch: TbrCatL Inhibition 10’ for everything below.
1. c1coc(CNc2nc(N3CCCCC3)nc3ccccc23)c1 [MMV676401]
2. Cc1cc(Nc2ccncc2)n2nc(C)c(-c3ccccc3Cl)c2n1 [MMV016136]
3. Cc1c[nH]c(CCNC(=O)c2cc(-c3ccc(Cl)cc3)cs2)n1 [MMV676350]
4. CN1CCN(S(=O)(=O)c2ccc(-c3ccc4c(Nc5ncc(Cl)cn5)ccnc4c3)cc2)CC1 [MMV688283]
5. CC(=O)NC[C@H]1CN(c2ccc(-c3ccc(CNCc4cn[nH]n4)cc3)c(F)c2)C(=O)O1 [MMV688327]

1: 15; 2: 6; 3: 28; 4: 18; 5: 6.4

State the recorded TbrCatL Inhibition 10’ for every item in the following list.
1. N=C(N)c1ccc(-c2cc(-c3ccccc3)on2)cc1 [MMV688514]
2. CCCn1nnc(NC(=O)COc2ccc(C3CCCCC3)cc2)n1 [MMV676597]
3. Cc1cc(C(=O)Nc2ccc(-c3ccccc3)cc2)no1 [MMV020152]
4. COc1ccc(C2=NN(C3CCCCCC3)C(=O)[C@H]3CC=CC[C@@H]23)cc1OCCCCOc1ccc(-c2nn[nH]n2)cc1 [MMV690027]
5. Cc1ccc2c(c1C)NC(=O)C21NN=C(c2ccccc2)S1 (stereo not drawn) [MMV019189]

1. -6.6
2. 10
3. 1.1
4. -1.8
5. 14

Count: 5. Required value per item: TbrCatL Inhibition 10’.
1. CO[C@@H](C(=O)N1Cc2[nH]nc(NC(=O)c3ccc(N4CCN(C)CC4)cc3)c2C1)c1ccccc1 [MMV676600]
2. c1ccc(-c2[nH]c3ccccc3c2C(c2ccccn2)N2CCCC2)cc1 (stereo not drawn) [MMV688762]
3. N#Cc1ccc(-c2ccc(OCC(N)=O)cc2)cc1 [MMV053220]
4. Nc1ncnc2c1ncn2C[C@@H](O)[C@@H](O)C(=O)O [MMV689255]
5. Cc1noc(C)c1C(=O)N1CCCC(c2[nH]c3c(C)cccc3c2-c2ccncc2)C1 (stereo not drawn) [MMV020623]

1. 11
2. 1.8
3. -7
4. -1.3
5. 4

Parameter requested: TbrCatL Inhibition 10’. Apply to each item below.
1. COc1nc2ccc(Br)cc2cc1[C@@H](c1ccccc1)[C@@](O)(CCN(C)C)c1cccc2ccccc12 [MMV689758]
2. O=C(NC1CC1)c1ccc(N2CCC(Cc3ccccc3)CC2)nc1 [MMV024397]
3. Cc1cc(C2=NOC(c3cc(Cl)c(F)c(Cl)c3)(C(F)(F)F)C2)ccc1C(=O)NCc1ccc2c(c1)C(C)(C)OB2O (stereo not drawn) [MMV687776]

1. -1.4
2. 2.6
3. -4.5
